Biological target: Fn14-TWEAK binding (Homo sapiens, UniProt Q9NP84)
Construct: the human Fc fragment-tagged Fn14 extracellular domain (R&D Systems) was captured; purchased R&D Systems (Fn14-Fc); Peprotech (recombinant TWEAK)
Sequence (Q9NP84 28-80 limits assumed): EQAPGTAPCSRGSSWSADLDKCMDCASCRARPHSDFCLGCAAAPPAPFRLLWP
Assay: Double sandwich ELISA small molecule screening of TWEAK binding to captured Fn14-Fc
Details: Table 5, 25 μM, replicate 2; read-out: % Reduction in TWEAK Binding, Data 2
Examples of compounds with documented inhibition at 25 µM follow.
Don't forget the unit after the value.

Some compounds with recorded inhibition at 25 µM:
>>> endpoint_result("O=C(c1cn(-c2cccc(Cl)c2)nn1)N1CCSCC1 [Compound L524-0366]")
"14.9%"
>>> endpoint_result("CC(C)NC(=O)C(=O)NCc1n[nH]c(=O)c2ccccc12 [Compound F044-0043]")
"14.7%"
>>> endpoint_result("O=C(CSc1ccccc1)Nc1cccc2nsnc12 [Compound F281-0079]")
"13.7%"
>>> endpoint_result("O=C(NCc1n[nH]c(=O)c2ccccc12)C(=O)N1CCCCCC1 [Compound F044-0011]")
"23.2%"

Can you look up the measured inhibition at 25 µM of Cc1cc(C)n(CC(=O)NCCc2c[nH]c3ccccc23)n1 [Compound D715-0890] for me?
13.6%
